Assay: Viability assay against CHO cells (MTT colorimetric assay)
Type: cell-based, Chinese hamster
Settings: Chinese hamster, CHO cells, 3.125e-007 M; 72 h; replicates n = 1, 2, 3; read-out: % viable cells
Starred links: 1 amine or outer side, 2 acyl side, 3 side chain; linkers in the order of their positions; H or OH if unused. Positions of bridges follow the written chain, without caps; N, C: chain ends. Non-standard residues stand in square brackets, D forms with d. Residues, ends and D or L forms follow the SMILES beside them. Trp(2-yl) = O=C([C@H](Cc1c([*:3])[nH]c2ccccc12)N[*:1])[*:2]; Pro(trans-4-guanidino) = N=C(N)N[C@H]1CN[C@H](C(=O)O)C1; Ile(4R-OH,5-OH) = C[C@H]([C@H](N)C(=O)O)[C@@H](O)CO; X5 = COC(=O)N[C@@H]1C[C@@H](C(=O)[*:2])N([*:1])C1; Pro(4R-NH2) = N[C@H]1CN[C@H](C(=O)O)C1
OBSERVABLE: viability at 72 h, 3.125e-07 M (%)
Provide only the numeric value, understood in %.

get_value(item= CC[C@H](C)[C@@H]1NC(=O)CNC(=O)[C@@H]2Cc3c([nH]c4ccccc34)SC[C@H](NC(=O)CNC1=O)C(=O)N[C@@H](CC(N)=O)C(=O)N1C[C@H](N)C[C@H]1C(=O)N[C@@H]([C@@H](C)[C@@H](O)CO)C(=O)N2 [Compound 6, NH2-Pro-amanitin] (cyclo(CN[Pro(4R-NH2)][Ile(4R-OH,5-OH)][Trp(2-yl)]GIG); thioether 1-5) , readout=viability at 72 h, 3.125e-07 M) returns 86

get_value(item= CC[C@H](C)[C@@H]1NC(=O)CNC(=O)[C@@H]2Cc3c([nH]c4ccccc34)SC[C@H](NC(=O)CNC1=O)C(=O)N[C@@H](CC(N)=O)C(=O)N1C[C@H](NC(=N)N)C[C@H]1C(=O)N[C@@H]([C@@H](C)[C@@H](O)CO)C(=O)N2 [Compound 7, Gdn-Pro-amanitin] (cyclo(CN[Pro(trans-4-guanidino)][Ile(4R-OH,5-OH)][Trp(2-yl)]GIG); thioether 1-5) , readout=viability at 72 h, 3.125e-07 M) returns 85

get_value(item= CC[C@H](C)[C@@H]1NC(=O)CNC(=O)[C@@H]2Cc3c([nH]c4ccccc34)SC[C@H](NC(=O)CNC1=O)C(=O)N[C@@H](CC(N)=O)C(=O)N1C[C@H](NC(=O)OC)C[C@H]1C(=O)N[C@@H]([C@@H](C)[C@@H](O)CO)C(=O)N2 [Compound 32, MeOCONH-Pro-amanitin] (cyclo(CN[X5][Ile(4R-OH,5-OH)][Trp(2-yl)]GIG); thioether 1-5) , readout=viability at 72 h, 3.125e-07 M) returns 89

====

Assay: Viability assay against CHO cells (MTT colorimetric assay)
Assay type: cell-based, Chinese hamster
Conditions: Chinese hamster, CHO cells, 6.25e-007 M; 72 h; replicates n = 1, 2, 3; read-out: % viable cells
Starred links: 1 amine or outer side, 2 acyl side, 3 side chain; linkers in the order of their positions; H or OH if unused. Positions of bridges follow the written chain, without caps; N, C: chain ends. Non-standard residues stand in square brackets, D forms with d. Residues, ends and D or L forms follow the SMILES beside them. Trp(2-yl) = O=C([C@H](Cc1c([*:3])[nH]c2ccccc12)N[*:1])[*:2]; Pro(trans-4-guanidino) = N=C(N)N[C@H]1CN[C@H](C(=O)O)C1; X2 = [N-]=[N+]=N[C@@H]1C[C@@H](C(=O)[*:2])N([*:1])C1; Ile(4R-OH,5-OH) = C[C@H]([C@H](N)C(=O)O)[C@@H](O)CO; Pro(4R-NH2) = N[C@H]1CN[C@H](C(=O)O)C1
Could you please report measured viability at 72 h, 6.25e-07 M for the items listed next?
Provide only the numeric value, understood in %.

get_value(item= CC[C@H](C)[C@@H]1NC(=O)CNC(=O)[C@@H]2Cc3c([nH]c4ccccc34)SC[C@H](NC(=O)CNC1=O)C(=O)N[C@@H](CC(N)=O)C(=O)N1C[C@H](N)C[C@H]1C(=O)N[C@@H]([C@@H](C)[C@@H](O)CO)C(=O)N2 [Compound 6, NH2-Pro-amanitin] (cyclo(CN[Pro(4R-NH2)][Ile(4R-OH,5-OH)][Trp(2-yl)]GIG); thioether 1-5) , readout=viability at 72 h, 6.25e-07 M) returns 92

get_value(item= CC[C@H](C)[C@@H]1NC(=O)CNC(=O)[C@@H]2Cc3c([nH]c4ccccc34)SC[C@H](NC(=O)CNC1=O)C(=O)N[C@@H](CC(N)=O)C(=O)N1C[C@H](NC(=N)N)C[C@H]1C(=O)N[C@@H]([C@@H](C)[C@@H](O)CO)C(=O)N2 [Compound 7, Gdn-Pro-amanitin] (cyclo(CN[Pro(trans-4-guanidino)][Ile(4R-OH,5-OH)][Trp(2-yl)]GIG); thioether 1-5) , readout=viability at 72 h, 6.25e-07 M) returns 88

get_value(item= CC[C@H](C)[C@@H]1NC(=O)CNC(=O)[C@@H]2Cc3c([nH]c4ccccc34)SC[C@H](NC(=O)CNC1=O)C(=O)N[C@@H](CC(N)=O)C(=O)N1C[C@H](N=[N+]=[N-])C[C@H]1C(=O)N[C@@H]([C@@H](C)[C@@H](O)CO)C(=O)N2 [Compound 3, N3-Pro-amanitin] (cyclo(CN[X2][Ile(4R-OH,5-OH)][Trp(2-yl)]GIG); thioether 1-5) , readout=viability at 72 h, 6.25e-07 M) returns 101
